System: T47D cells
Procedure Details: MTT cytotoxicity assay
Type: cell-based, human
Condition: Homo sapiens, T47D, 48 h, MTT assay; calculated after two days exposure
Measured Parameter: IC50 (µM)
Give the number; µM is assumed, so skip it.

[
  {
    "Compound": "Cc1ccc2c(Cn3ccnc3)cc(-c3ccc(S(C)(=O)=O)cc3)nc2c1C",
    "Readout Unit": "µM",
    "Observed Measurement": 50
  },
  {
    "Compound": "COc1cccc2c1C(=O)c1c(O)c3c(c(O)c1C2=O)C[C@@](O)(C(=O)CO)C[C@@H]3O[C@H]1C[C@H](N)[C@H](O)[C@H](C)O1 [Doxorubicin, reference compound]",
    "Readout Unit": "µM",
    "Observed Measurement": 0.1
  },
  {
    "Compound": "CS(=O)(=O)c1ccc(-c2cc(Cn3ccnc3)c3ccc4c(c3n2)CCCC4)cc1",
    "Readout Unit": "µM",
    "Observed Measurement": 25
  },
  {
    "Compound": "CS(=O)(=O)c1ccc(-c2cc(Cn3ccnc3)c3ccc4ccccc4c3n2)cc1",
    "Readout Unit": "µM",
    "Observed Measurement": 50
  }
]

"CS(=O)(=O)c1ccc(-c2cc(Cn3ccnc3)c3ccccc3n2)cc1" has a reported IC50 of 50

====

# Survival (%) of MCF-7 cells listing for each entry below
Tested on: MCF-7 cells
Procedure Details: MTT cytotoxicity assay
Format: cell-based, human
Condition: 10 µM compound, 72 h exposure, MTT
The reply should contain only the number, in %.

[
  {
    "Compound": "Cc1ccc2c(Cn3ccnc3)cc(-c3ccc(S(C)(=O)=O)cc3)nc2c1C [Compound 9b]",
    "Readout Unit": "%",
    "Survival (%) of MCF-7 cells": 47.2
  },
  {
    "Compound": "CS(=O)(=O)c1ccc(-c2cc(Cn3ccnc3)c3ccc4ccccc4c3n2)cc1 [Compound 9c]",
    "Readout Unit": "%",
    "Survival (%) of MCF-7 cells": 41.3
  },
  {
    "Compound": "CS(=O)(=O)c1ccc(-c2cc(Cn3ccnc3)c3ccc4c(c3n2)CCCC4)cc1 [Compound 9d]",
    "Readout Unit": "%",
    "Survival (%) of MCF-7 cells": 0.7
  },
  {
    "Compound": "CS(=O)(=O)c1ccc(-c2cc(Cn3ccnc3)c3cccc(-c4ccccc4)c3n2)cc1 [Compound 9a]",
    "Readout Unit": "%",
    "Survival (%) of MCF-7 cells": 26.7
  }
]

Turning now to a further compound:
Log: MCF-7 cells, compound CS(=O)(=O)c1ccc(-c2cc(Cn3ccnc3)c3ccccc3n2)cc1 [Compound 9e] , Survival (%) of MCF-7 cells = 58.2

====

Tested on: MCF-7 cells
Procedure Details: MTT cytotoxicity assay
Format: cell-based, human
Condition: Homo sapiens, MCF7, 48 h, MTT assay; calculated after two days exposure
Measured Parameter: pIC50
Please treat pIC50 as minus the base-10 logarithm of the molar concentration.

[
  {
    "Molecule": "CS(=O)(=O)c1ccc(-c2cc(Cn3ccnc3)c3ccc4ccccc4c3n2)cc1",
    "Observed Measurement": 5.00
  }
]

API: the following record is the query input.
Looking up COc1cccc2c1C(=O)c1c(O)c3c(c(O)c1C2=O)C[C@@](O)(C(=O)CO)C[C@@H]3O[C@H]1C[C@H](N)[C@H](O)[C@H](C)O1 [Doxorubicin, reference compound] , I found its pIC50 recorded as 6.60
